Cited source for all entries: PubChem BioAssay (NCATS)

Assay: qHTS assay for measurement of the activity of small molecule inhibitors on Zika virus induced Caspase-3 activity in human astrocytoma cells (AID 1224859)
Details: SNB-19 ZIKV-induced caspase-3/7, luminescence, 6 h; series mostly up to 45.7 µM
Activity calls are given as the source filed them. Calls come from the whole dose curve; as a rule, active = well fitted inhibition curve with a large enough effect; inconclusive = small, poorly fitted or top-dose-only effect; inactive = no such curve, though single readings can be large or run the other way.
metric: Potency

Consider the worked cases shown below.
Answer with the recorded Potency for the molecule listed here: COc1ccc2c(c1)c(C1=C(c3c[nH]c4ccccc34)C(=O)NC1=O)cn2CCCN(C)C
inactive

Please supply the value of reported Potency for the item CN(C)CCN(C)C(=O)c1ccc(NC(=O)Nc2ccc(-c3nc(N4CCOCC4)c4ccn(CC(F)(F)F)c4n3)cc2)cc1
inactive

Note Potency for the molecule shown: CC1=C[C@@H]2[C@@H]([C@@H](O)C[C@@]3(C)[C@H]2C[C@@H](C)[C@]3(O)C(=O)CO)[C@@]2(C)Cc3cnn(-c4ccccc4)c3C=C12
inactive

Using known records, supply Potency for Cc1[nH]c(C=C2C(=O)Nc3ccc(S(=O)(=O)N(C)c4cccc(Cl)c4)cc32)c(C)c1C(=O)N1CCN(C)CC1
inactive

Let me know recorded Potency for Cc1cccc2c1CC[C@H](CN1CCC(c3c(Cl)cccc3Cl)CC1)C[C@@H]2O , thanks.
inactive

New cases:
Supply reported Potency belonging to this molecule: Cc1nc2c([nH]1)CCN(C(=O)c1ccc(NC(=O)c3ccccc3-c3ccccc3)cc1)c1ccccc1-2
inactive

Identify the reported Potency for the following entry. CN1CCC(COc2cnc(-c3cccc(Cn4nc(-c5cccc(C#N)c5)ccc4=O)c3)nc2)CC1
inactive

// fetch Potency given entry NC[C@H]1O[C@H](O[C@@H]2[C@@H](O)[C@@H](O[C@H]3O[C@H](CO)[C@@H](O)[C@H](N)[C@@H]3O)[C@H](N)C[C@@H]2N)[C@H](O)[C@@H](O)[C@H]1O
inactive

Please give measured Potency of the following entry: CCCCN(CCCC)CC(O)c1cc(Cl)cc2c1-c1ccc(Cl)cc1C2=Cc1ccc(Cl)cc1 (stereo not drawn)
inactive

Fill in Potency for record CC(=O)Nc1cccc(-n2c(=O)n(C3CC3)c(=O)c3c(Nc4ccc(I)cc4F)n(C)c(=O)c(C)c32)c1
inactive

Provide Potency value for the following molecule: Nc1ccc(-c2ccc3ncc4ccc(=O)n(-c5cccc(C(F)(F)F)c5)c4c3c2)cn1
inactive

Give Potency for Cc1cc2nc3c(=O)[nH]c(=O)nc-3n(CC(O)C(O)C(O)CO)c2cc1C (stereo not drawn)
inactive

Report Potency for COc1cc(CNC(=O)CCCCC=CC(C)C)ccc1O
inactive

Indicate the recorded Potency value for this molecule: CCC(=C(c1ccc(O)cc1)c1ccc(OCCNC)cc1)c1ccccc1
inactive
